Values were extracted from patent US20200317768A1.

Would you mind telling me the reported Kd of each entry?
# System under test: T1, Mouse latent myostatin (mouse, UniProt O08689 26-267; O08689 268-376)
# T1 construct: Latent form = complex of two propeptides and the mature dimer
# T1 sequence 1: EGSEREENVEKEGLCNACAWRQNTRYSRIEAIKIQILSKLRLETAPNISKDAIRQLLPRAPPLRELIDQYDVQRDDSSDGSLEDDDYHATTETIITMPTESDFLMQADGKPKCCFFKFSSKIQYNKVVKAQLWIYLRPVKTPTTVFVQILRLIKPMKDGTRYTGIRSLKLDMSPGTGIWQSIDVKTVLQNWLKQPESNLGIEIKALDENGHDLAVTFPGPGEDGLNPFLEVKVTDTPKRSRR
# T1 sequence 2: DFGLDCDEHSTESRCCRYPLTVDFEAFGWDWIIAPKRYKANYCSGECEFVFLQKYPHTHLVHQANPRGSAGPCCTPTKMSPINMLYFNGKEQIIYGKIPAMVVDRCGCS
# Assay: SPR (BIACORE T200) 37C, pH 7.4, antibody captured by ProA/G
Give bare numbers, in nM.

Below: 2 binders and their reported Kd.
# Binder, Kd (nM)
rows = [
    ("MS_M103205H1795-SG1/M103202L1060-SK1 (antibody, human IgG1, kappa, V domains shown, also called MS1032LO24-SG1) VH: QVTLKESGPVLVKPTETLTLTCTVSGIDLSHDDISWVRQAPGKGLEWVGIISYAGSTYYASWAKGRLTISKDTSKNQVVLTMTNMDPVDTATYYCARGVPAYSHGGDLWGQGTLVTVSS VL: DIVMTQSPATLSLSPGERATLSCTSSQSVFHENWLSWFQQKPGQPPKLLIYWASTLAWGVPSRFSGSGSGTDFTLTISSLQPEDAATYYCAGGYGGGRYAFGQGTKVEIKR", 0.176),
    ("MS_M103240H1246-SG1/M103202L1045-SK1 (antibody, human IgG1, kappa, V domains shown, also called MS1032LO25-SG1) VH: QVQLVESGGGLVQPGGSLRLSCAVSGIDLSHEDISWVRQAPGKGLEWVSIISYAGSKYYASWAKGRLTISKDTSKNQVVLTMTNMDPVDTATYYCARGVPAYSHGGDLWGQGTLVTVSS VL: DIVMTQSPATLSLSPGERATLSCTTSQSVYHENWLSWFQQKPGQPPKLLIYWASTLAYGVPSRFSGSGSGTDFTLTISSLQPEDAATYYCAGGYGGGRYAFGQGTKVEIKR", 0.259),
]

Now, please, on to the next binder.
Input: Item under review: MS_M103205H1057-SG1/M103202L889-SK1 (antibody, human IgG1, kappa, V domains shown, also called MS1032LO12-SG1) VH: QVTLKESGPVLVKPTETLTLTCTVSGIDLSHTDISWVRQAPGKGLEWVGIISYAGSKYKASWAKGRLTISKDTSKNQVVLTMTNMDPVDTATYYCARGVPAYSHGGDLWGQGTLVTVSS VL: DIVMTQSPATLSLSPGERATLSCTSSQSVYHANWLSWFQQKPGQPPKLLIYWASTLAYGVPSRFSGSGSGTDFTLTISSLQPEDAATYYCAGGYGGGRYAFGQGTKVEIKR . Reported Kd?
Output: 0.413
